# system.tested: T1, CRBN, Q96SW2;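 also: pooled lentiviral library of zinc finger degron-EGFP fusions in mCherry-positive Jurkat cells, FACS-sorted after compound exposure, with degron abundance counted by next-generation sequencing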
# T1 chain: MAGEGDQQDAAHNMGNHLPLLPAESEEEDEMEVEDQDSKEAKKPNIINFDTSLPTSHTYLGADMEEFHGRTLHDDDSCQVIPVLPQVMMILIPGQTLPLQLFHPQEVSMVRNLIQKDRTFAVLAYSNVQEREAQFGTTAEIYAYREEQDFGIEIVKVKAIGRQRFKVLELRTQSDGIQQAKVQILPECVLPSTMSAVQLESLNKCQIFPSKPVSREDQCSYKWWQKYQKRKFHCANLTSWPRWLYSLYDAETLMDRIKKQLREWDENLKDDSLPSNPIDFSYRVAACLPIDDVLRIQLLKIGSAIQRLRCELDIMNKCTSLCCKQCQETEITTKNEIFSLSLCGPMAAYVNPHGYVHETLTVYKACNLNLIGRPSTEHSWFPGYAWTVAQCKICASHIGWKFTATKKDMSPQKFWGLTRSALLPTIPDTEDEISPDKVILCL
# run.description: log2 fold change of degron read counts, EGFP-low vs EGFP+ sorted cells (limma voom), compound-induced degradation; higher = more compound-induced degradation of the degron-EGFP fusion; degrons are variants of IKZF1/3 zinc finger 2; compound dose not given here
# condition.context: Jurkat; 18 h; compound: compound 33 (diphenyl IMiD analogue)
In all, about 8,300 sequences were measured (“log2 fold change of degron read counts, EGFP-low vs EGFP+ sorted cells (limma voom), compound-induced degradation”: median about -1.1, highest 2% from about 3.2 on). The sample as a whole holds a higher share of the highest values than the screen did.
Label False if log2 fold change of degron read counts falls below 1; label True in every other case.

As a guide, the following entries are already answered.
[
  {
    "biopolymer.sequence": "FQCPQCGACFTQKGNLLRHIKL [46F_47Q_49P_50Q_52G_53A_54C_55F_67L_, Q9UKT9]",
    "qualitative.label": "False"
  },
  {
    "biopolymer.sequence": "FVCEVCGAFFTQKGNLLRHIKL [46F_47V_49E_50V_52G_53A_54F_55F_67L_, Q9UKT9]",
    "qualitative.label": "True"
  },
  {
    "biopolymer.sequence": "FYCPQCGAHFTQKGNLLRHIKL [46F_47Y_49P_50Q_52G_53A_54H_55F_67L_, Q9UKT9]",
    "qualitative.label": "True"
  },
  {
    "biopolymer.sequence": "FLCDQCGAYFTQKGNLLRHIKL [46F_47L_49D_50Q_52G_53A_54Y_55F_67L_, Q9UKT9]",
    "qualitative.label": "False"
  },
  {
    "biopolymer.sequence": "FTCEVCGAQFTQKGNLLRHIKL [46F_47T_49E_50V_52G_53A_54Q_55F_67L_, Q9UKT9]",
    "qualitative.label": "True"
  }
]

## Input # bool: log2 fold change of degron read counts of LTCPICGFVCTQKGNLLRHIKL [46L_47T_49P_50I_52G_53F_54V_55C_67L_, Q9UKT9] >= 1
## Output True

## Input Continue with FFCSVCGHKFTQKGNLLRHIKL [46F_47F_49S_50V_52G_53H_54K_55F_67L_, Q9UKT9]
## Output False
